Assign Max threshold shift to each entry below.
# TEST_SYSTEM: hKv3.1b (Homo sapiens, UniProt P48547)
# Construct: expressed in transfected cells
# Sequence (P48547 1-585 isoform P48547-2): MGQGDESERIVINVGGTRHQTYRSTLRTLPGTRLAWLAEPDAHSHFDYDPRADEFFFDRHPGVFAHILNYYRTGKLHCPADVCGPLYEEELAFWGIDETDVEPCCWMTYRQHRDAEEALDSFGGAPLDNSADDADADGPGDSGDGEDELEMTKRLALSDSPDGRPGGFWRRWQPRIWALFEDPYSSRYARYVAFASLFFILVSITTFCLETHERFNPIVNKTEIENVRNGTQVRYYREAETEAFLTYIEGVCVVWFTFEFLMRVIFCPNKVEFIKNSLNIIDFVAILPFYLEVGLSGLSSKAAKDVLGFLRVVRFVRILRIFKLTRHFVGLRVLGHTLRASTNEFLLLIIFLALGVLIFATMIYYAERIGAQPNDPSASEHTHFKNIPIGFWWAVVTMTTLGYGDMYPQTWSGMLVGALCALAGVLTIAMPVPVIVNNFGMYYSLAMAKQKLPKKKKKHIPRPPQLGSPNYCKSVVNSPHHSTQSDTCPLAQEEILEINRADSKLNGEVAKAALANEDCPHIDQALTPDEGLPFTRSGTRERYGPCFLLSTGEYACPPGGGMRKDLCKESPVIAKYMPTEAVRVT
# TEST: QPatch automated whole-cell patch-clamp, shift of voltage threshold for channel activation
# Assay type: cell-based
# EXPERIMENTAL_CONDITIONS: HEK-293 cells stably expressing hKv3.1b; maximum absolute shift of activation threshold to more hyperpolarized potentials at tested concentrations (0.37, 1.11, 3.33, 10, 30 μM)
Record the result as number plus unit.

Inquiry: Determine from records and report Max threshold shift for "COc1ccc(S(=O)(=O)c2ccc(C(=O)NCc3cnc(C)cn3)s2)cc1"
Reply text: 24 mV

Inquiry: Determine from records and report Max threshold shift for "Cc1ccc(S(=O)(=O)c2ccc(C(=O)NCc3ncn(C)n3)s2)cc1"
Reply text: 20 mV

Inquiry: Determine from records and report Max threshold shift for "Cc1ccc(S(=O)(=O)c2ccc(C(=O)NCc3cnc(C)nc3)s2)cc1"
Reply text: 24 mV

Inquiry: Determine from records and report Max threshold shift for "Cc1cnc(CNC(=O)c2ccc(S(=O)(=O)c3ccccc3C)s2)cn1"
Reply text: 30 mV

Inquiry: Determine from records and report Max threshold shift for "Cc1ccc(S(=O)(=O)c2ccc(C(=O)NCc3ccn(C)n3)o2)cc1"
Reply text: 17 mV

====

# TEST_SYSTEM: hKv3.1b (Homo sapiens, UniProt P48547)
# Construct: expressed in transfected cells
# TEST: QPatch automated whole-cell patch-clamp, shift of voltage threshold for channel activation
# Type: cell-based
# EXPERIMENTAL_CONDITIONS: HEK-293 cells stably expressing hKv3.1b; maximum absolute shift of activation threshold to more hyperpolarized potentials at tested concentrations (0.37, 1.11, 3.33, 10, 30 μM)
Assign Max threshold shift to each entry below.
The response must be a number in mV with no trailing unit.

Inquiry: Determine from records and report Max threshold shift for Cc1ccc(S(=O)(=O)c2ccc(C(=O)NCc3ccn(C)n3)s2)cc1 [Compound 7]
Reply text: 17

Inquiry: Determine from records and report Max threshold shift for Cc1ccc(S(=O)(=O)c2ccc(C(=O)NCc3cnc(C)cn3)s2)cc1 [Compound 1]
Reply text: 24

Inquiry: Determine from records and report Max threshold shift for Cc1ccc(S(=O)(=O)c2ccc(C(=O)NCc3cccnc3)s2)cc1 [Compound 8]
Reply text: 16

Inquiry: Determine from records and report Max threshold shift for Cc1ccc(S(=O)(=O)c2ccc(C(=O)NCc3cc(F)ccn3)o2)cc1 [Compound 25]
Reply text: 15

Inquiry: Determine from records and report Max threshold shift for Cc1cnc(CNC(=O)c2ccc(S(=O)(=O)c3ccc(Cl)cc3)s2)cn1 [Compound 2]
Reply text: 36

Inquiry: Determine from records and report Max threshold shift for Cc1ccc(S(=O)(=O)c2ccc(C(=O)NCc3ccc(C)nn3)s2)cc1 [Compound 14]
Reply text: 22

Inquiry: Determine from records and report Max threshold shift for Cc1cnc(CNC(=O)c2ccc(S(=O)(=O)c3ccc(F)cc3)s2)cn1 [Compound 3]
Reply text: 19

Inquiry: Determine from records and report Max threshold shift for Cc1ccc(S(=O)(=O)c2ccc(C(=O)NCc3nc(C)no3)s2)cc1 [Compound 11]
Reply text: 17

Inquiry: Determine from records and report Max threshold shift for Cc1cnc(CNC(=O)c2ccc(S(=O)(=O)c3ccc(C(F)F)cc3)s2)cn1 [Compound 21]
Reply text: 32
